# run description: Inhibition of the protein kinase C.
pIC50: −log10 of the molar value.
quantity name: pIC50

Below, 3 compounds whose answers are already recorded.
smiles representation	pIC50
O=[N+]([O-])/C=C/c1ccc(O)cc1	< 3.30
CC(C)(C)NC(=O)c1ccc(S(=O)(=O)Oc2ccc(/C=C/[N+](=O)[O-])cc2)cc1	3.47
C[C@@H](NC(=O)c1ccc(S(=O)(=O)Oc2ccc(/C=C/[N+](=O)[O-])cc2)cc1)C(=O)N[C@H](C)C(=O)NCCNC(=O)OC(C)(C)C	< 3.30

Query pIC50 for `O=[N+]([O-])/C=C/c1ccc(O)c(O)c1`
< 3.30

Consider the compound `CCCCNC(=O)c1ccc(S(=O)(=O)Oc2ccc(/C=C/[N+](=O)[O-])cc2)cc1` and give its recorded pIC50.
< 3.30
